Could you please report measured TGI for the items listed next?
System: MALME-3M melanoma
Test: NCI tumour cell line growth inhibition, 48 h

See these solved cases before continuing.
INSERT INTO assay_data (compound, property_name, value_reported) VALUES
  ('O=C(/C=C/c1ccccc1O)c1ccc([N+](=O)[O-])cc1', 'TGI', '> 100 µM'),
  ('O=C(C=P(c1ccccc1)(c1ccccc1)c1ccccc1)CCl', 'TGI', '3.08 µM'),
  ('CC12CCC(=O)N1c1cncnc1N2 (stereo unspecified)', 'TGI', '> 10 µM');

I would be grateful if you could provide TGI for each of the following entries.
1. CON(C)C(=O)[C@H]1C[C@@]1(C)CO
2. N/N=C(\c1nc2ccc([N+](=O)[O-])cc2[nH]c1=O)C(O)c1ccc(Cl)c(Cl)c1 (stereo unspecified)

Data returned:
["> 100 µM", "> 100 µM"]

State the recorded TGI for every item in the following list.
1. Cn1cc(C2=C(c3cn(-c4ccccc4)c4ccccc34)C(=O)NC2=O)c2ccccc21
2. N#Cc1c(NC(=O)c2ccc(F)cc2)sc2c1CCCC2
3. N#CC1=C2SCCN2C(=O)C(C#N)C12CCCCC2 (stereo unspecified)
4. C=C1C(=O)O[C@@H]2/C=C(\C)CC/C=C(\C)CC[C@@]12O
5. C=CCC1(Sc2ccccn2)Sc2ccc3ccccc3c2-c2c(ccc3ccccc23)S1
6. Cc1cc2nc(C=C(C(F)(F)F)C(F)(F)F)sc2cc1C

Data returned:
1: > 25 µM; 2: > 25 µM; 3: > 100 µM; 4: 3.05 µM; 5: > 100 µM; 6: 4.56 µM
